Tested on: P12-Ichikawa
assay-notes: cell viability relative to DMSO control; higher = less cytotoxic
conditions-used: RPMI 5 mM glucose + 10% dialyzed FBS; 48 h; 0.00234 µM
This section presents molecules with their documented cell viability values.

{"molecule": "CN(C)CCN(Cc1ccc(Cl)cc1)c1ccccn1.Cl", "unit-name": "%", "cell viability": 82.3}
{"molecule": "COc1cc(N[S+](=O)([O-])c2ccc(N)cc2)nc(OC)n1", "unit-name": "%", "cell viability": 108}
{"molecule": "Nc1nc(OCc2ccccc2)c2nc[nH]c2n1", "unit-name": "%", "cell viability": 114}
{"molecule": "C[S+]([O-])c1ccc(-c2nc(-c3ccc(F)cc3)c(-c3ccncc3)[nH]2)cc1 (configuration not stated)", "unit-name": "%", "cell viability": 103}
{"molecule": "CCN1C[C@]2(OC(=O)c3ccccc3NC(C)=O)CC[C@H](OC)[C@@]34[C@@H]2C[C@@H]([C@@H]13)[C@@]1(O)C[C@H](OC)[C@H]2C[C@@H]4[C@]1(O)[C@H]2OC", "unit-name": "%", "cell viability": 111}
{"molecule": "C[N+](C)([O-])CCNc1ccc(NCC[N+](C)(C)[O-])c2c1C(=O)c1c(O)ccc(O)c1C2=O", "unit-name": "%", "cell viability": 80.9}
{"molecule": "N[C@@H](CC(=O)N1CCn2c(nnc2C(F)(F)F)C1)Cc1cc(F)c(F)cc1F", "unit-name": "%", "cell viability": 94.5}

###

This section presents molecules with their documented cell viability values.
Tested on: SEM cells
assay-notes: cell viability relative to DMSO control; higher = less cytotoxic
conditions-used: RPMI 5 mM glucose + 10% FBS; 48 h; 15.4 µM

{"mol": "COc1cc(OC)c(NC(=O)Nc2cc(C)on2)cc1Cl", "target-or-test-system": "SEM cells", "cell viability [%]": 80.6}
{"mol": "Nc1nc(OCc2ccccc2)c2nc[nH]c2n1", "target-or-test-system": "SEM cells", "cell viability [%]": 76.7}
{"mol": "CCCCCCCCc1ccc(CCC(N)(CO)CO)cc1", "target-or-test-system": "SEM cells", "cell viability [%]": 107}
{"mol": "N\\C1=N\\C2=C(N=C[N]2COC(CO)CO)C(=O)N1", "target-or-test-system": "SEM cells", "cell viability [%]": 64.8}

###

System: P12-Ichikawa
assay-notes: cell viability relative to DMSO control; higher = less cytotoxic
conditions-used: RPMI 5 mM glucose + 10% dialyzed FBS; 48 h; 1.71 µM

{"compound": "C[N+](C)([O-])CCNc1ccc(NCC[N+](C)(C)[O-])c2c1C(=O)c1c(O)ccc(O)c1C2=O", "cell viability": "44.9%"}
{"compound": "COc1ccc2c(c1OC)CN1CCc3cc4c(cc3C1C2)OCO4 (stereo not given)", "cell viability": "52.9%"}
{"compound": "O=C1NC(=O)/C(=C/c2cccc(C(F)(F)F)c2)S1", "cell viability": "99.7%"}
{"compound": "CCN(C)C(=O)Oc1cccc([C@H](C)N(C)C)c1", "cell viability": "98.2%"}
{"compound": "C[C@@H]1C[C@H]2[C@@H]3CC\\C4=C\\C(=O)\\C=C/[C@]4(C)[C@@]3(Cl)[C@@H](O)C[C@]2(C)[C@@]1(OC(=O)C5=CC=CO5)C(=O)CCl", "cell viability": "41.2%"}
{"compound": "C#C[C@]1(O)CC[C@H]2[C@@H]3CCc4cc(OC)ccc4[C@H]3CC[C@@]21C", "cell viability": "107%"}
{"compound": "COc1cc(OC)c(NC(=O)Nc2cc(C)on2)cc1Cl", "cell viability": "102%"}
{"compound": "COc1cc2ncnc(Nc3cccc(Br)c3)c2cc1OC", "cell viability": "109%"}
{"compound": "CC(C)c1ccccc1Cc1cc(C(=O)Nc2ccc([S+](=O)([O-])c3ccccc3C(C)(C)C)cc2)c(O)c(O)c1O", "cell viability": "107%"}
{"compound": "CCN(CC)CCN1C(=O)\\C(=N/C2=CC=CC=C12)CC3=CC=C(OC)C=C3", "cell viability": "111%"}
{"compound": "O=C1NC(O)CCN1[C@@H]1O[C@H](CO)[C@@H](O)[C@H]1O (stereo not given in full)", "cell viability": "121%"}
{"compound": "NC(=O)Nc1cc(-c2ccc(CN3CCOCC3)cc2)sc1C(N)=O", "cell viability": "19.4%"}
{"compound": "COC[C@H]1OC(=O)C2=COC3=C2[C@@]1(C)\\C4=C(\\[C@@H]5CC[C@H](O)[C@@]5(C)C[C@H]4OC(C)=O)C3=O", "cell viability": "130%"}
{"compound": "CC(C)NCC(O)c1ccc(NS(C)(=O)=O)cc1 (stereo not given)", "cell viability": "91%"}
{"compound": "Cc1c(C(=O)Nc2cccc(C(F)(F)F)c2)cc(-c2ccccc2)n1CCCN1CCOCC1", "cell viability": "103%"}
{"compound": "COc1cccc2c1C(=O)c1c(O)c3c(c(O)c1C2=O)C[C@@](O)(C(C)=O)C[C@@H]3O[C@H]1C[C@H](N)[C@H](O)[C@H](C)O1", "cell viability": "7.49%"}
{"compound": "CC(C)NCC(O)COc1ccc(CCOCC2CC2)cc1 (stereo not given)", "cell viability": "119%"}
{"compound": "Cc1cc(Cl)ccc1OCCCC(=O)NO", "cell viability": "35.9%"}
{"compound": "NC(=O)c1cccc(N)c1", "cell viability": "120%"}
{"compound": "COC(=O)[C@@H](N)CCCNC(=N)N[N+](=O)[O-]", "cell viability": "98.6%"}
{"compound": "Cc1ncc([N+](=O)[O-])n1CCO", "cell viability": "125%"}
{"compound": "OC(COC1=C2C(=O)\\C=C(/OC2=CC=C1)C([O-])=O)COC3=C4C(=O)\\C=C(/OC4=CC=C3)C([O-])=O", "cell viability": "87.8%"}
{"compound": "Cc1cc(O)c2c(c1)C(=O)c1cc(O)cc(O)c1C2=O", "cell viability": "90.8%"}
{"compound": "CN(C)c1ccc(Nc2nc(N)n(C(=O)c3c(F)cccc3F)n2)cc1", "cell viability": "126%"}
{"compound": "CC(C)C[C@H](NC(=O)[C@H](Cc1ccccc1)NC(=O)c1cnccn1)B(O)O", "cell viability": "1.7%"}

###

This section presents molecules with their documented cell viability values.
Test system: NOMO1
assay-notes: cell viability relative to DMSO control; higher = less cytotoxic
conditions-used: HPLM + 10% dialyzed FBS; 48 h; 0.569 µM

{"mol": "COc1cc2ncnc(Nc3cccc(Br)c3)c2cc1OC", "cell viability": "108%"}
{"mol": "Oc1cc(O)cc(/C=C/c2ccc(O)c(O)c2)c1", "cell viability": "97.4%"}
{"mol": "CCCCCCCCc1ccc(CCC(N)(CO)CO)cc1", "cell viability": "79.1%"}
{"mol": "O=C(NNC(=O)c1ccc(CN[S+](=O)([O-])c2ccc(F)c(Cl)c2)cc1)c1ccccc1", "cell viability": "104%"}
{"mol": "C=CCn1c(=O)c2cnc(Nc3ccc(N4CCN(C)CC4)cc3)nc2n1-c1cccc(C(C)(C)O)n1", "cell viability": "52.1%"}
{"mol": "NCC(=O)Nc1ccc(-n2nc(C(F)(F)F)cc2-c2ccc3c(ccc4ccccc43)c2)cc1", "cell viability": "138%"}
{"mol": "CN(C)CCCNC(=O)c1ccc(-c2cc(O)c3ncccc3c2)cc1", "cell viability": "117%"}
{"mol": "CN(C)C[C@@H]1CC[N]2C=C(C3=C2C=CC=C3)C/4=C(/C(=O)NC4=O)C5=C[N](CCO1)C6=C5C=CC=C6", "cell viability": "94%"}
{"mol": "OC(COC1=C2C(=O)\\C=C(/OC2=CC=C1)C([O-])=O)COC3=C4C(=O)\\C=C(/OC4=CC=C3)C([O-])=O", "cell viability": "96.3%"}

###

Test system: NOMO1
assay-notes: cell viability relative to DMSO control; higher = less cytotoxic
conditions-used: RPMI 5 mM glucose + 10% dialyzed FBS; 48 h; 0.00702 µM
outcome-measure: cell viability (%)

{"compound": "Cc1c(C(=O)Nc2cccc(C(F)(F)F)c2)cc(-c2ccccc2)n1CCCN1CCOCC1", "target-or-test-system": "NOMO1", "outcome-measure": "cell viability", "unit-name": "%", "measurement": 111}
{"compound": "COC1(C[S+]([O-])c2ccccc2)CCN(CCc2c[nH]c3ccc(F)cc23)CC1 (stereo not drawn)", "target-or-test-system": "NOMO1", "outcome-measure": "cell viability", "unit-name": "%", "measurement": 115}
{"compound": "CN(C)CCCNC(=O)c1ccc(-c2cc(O)c3ncccc3c2)cc1", "target-or-test-system": "NOMO1", "outcome-measure": "cell viability", "unit-name": "%", "measurement": 112}
